Let's look at some sequences and their measured folding stability dG unfold.
# experiment-notes: folding stability dG unfold from chymotrypsin proteolysis; higher = more stable

[
  {
    "sequence-code": "SAGGETVTTESYQPLPTGPGLSFKNVVTTEEDVNNPGVKYTTTEVTAELVNPEGDESTTTTSTVTAASAGGS [r16_217_JUSTAS]",
    "folding stability dG unfold (kcal/mol)": 0.00547
  },
  {
    "sequence-code": "SAGGSAGGSAGGSTRDFLVKDPSNGQWYKVTATTDPAGAVTITFPETGEVVPLEGLVVSPSAGGSAGGSAGG [r11_301_JUSTAS]",
    "folding stability dG unfold (kcal/mol)": 1.34
  },
  {
    "sequence-code": "SAGGSAGGSAGGDDNDKEPIGEVTVEVIIPPQIPIRIRWDIYKDPPNGNAMMNMDIDIHSAGGSAGGSAGGS [r10_6_TrROS]",
    "folding stability dG unfold (kcal/mol)": 0.968
  },
  {
    "sequence-code": "SAGWYYIIIIKHDNKPIVFVIPPEGMPPEGIRDQISEMLGMPPDNVEIDDIVPFDDNQDAEEAVKEALDSAG [r5_900_TrROS]",
    "folding stability dG unfold (kcal/mol)": 2.33
  },
  {
    "sequence-code": "SAGGSAGGSAGGGITIKGPGSVTVTVPASDVASISVDPATGTVTVEIPATGTTLTVPPASAGGSAGGSAGGS [r10_200_JUSTAS]",
    "folding stability dG unfold (kcal/mol)": 0.238
  },
  {
    "sequence-code": "SAGGSAGGSAGGMIRIENPGNGEPRPIKPNDLEDILDNFPGPMRIETGGGEKEVPAKDISAGGSAGGSAGGS [r10_839_TrROS]",
    "folding stability dG unfold (kcal/mol)": 0.052
  },
  {
    "sequence-code": "SAGGSAGGMTIPLPGSVEEIQELLGGPIKEYTEEAPGSGTLTLPNGTPITVERESPELLKEVLRSAGGSAGG [r6_19_JUSTAS]",
    "folding stability dG unfold (kcal/mol)": -0.0581
  },
  {
    "sequence-code": "SAGGSAMKTAEVVLDVPEEELEAARAAGEGLSAEVRARMEALAAEVRAAGYDEVVLRLRPSSVPLPSAGGSA [r15_304_JUSTAS]",
    "folding stability dG unfold (kcal/mol)": -0.0294
  },
  {
    "sequence-code": "SAGWKPITAEEIKKLVKEFAEKAPPGDKRPVTVEIRLPLPNGRHWVFTIKVERTDNNVKVKIEVQPYNSAGG [r19_220_TrROS]",
    "folding stability dG unfold (kcal/mol)": 3.64
  },
  {
    "sequence-code": "SMPVGVEELAERLAEEIEKELSEKTGVPVKVEKITVEEDPATGTVTVTITLYLPDGKKIREESLTVPVLESA [r9_60_JUSTAS]",
    "folding stability dG unfold (kcal/mol)": 1.52
  },
  {
    "sequence-code": "SAGGSAIIIPIKSAEEILDQLENNPPGRPIHVWAPDGYWIKIEIDPGKGPKIKITEIYPMPPEEAKSAGGSA [r15_577_TrROS]",
    "folding stability dG unfold (kcal/mol)": 0.984
  },
  {
    "sequence-code": "SAGGSAGGSAGGPLPGKPPLRLKLFTLTVRTRTYRKTEDGTWEEVEESEAEITVLVLEPVSAGGSAGGSAGG [r7_506_TrROS_Hall]",
    "folding stability dG unfold (kcal/mol)": 4.99
  },
  {
    "sequence-code": "SAKEELYIIEIKVYVDGKEVKTITKVITVPEEKLEEKLKELLKKLAEELGLEIKKVEVKIKKLSLEELKSAG [r14_104_TrROS_Hall]",
    "folding stability dG unfold (kcal/mol)": 3.09
  },
  {
    "sequence-code": "SAGGSAGGSAGGKKKKVIEIELKPGEKLTLEQIKEIAKKLNVKKVKVEKVDGKLKIVVESAGGSAGGSAGGS [r10_642_TrROS_Hall]",
    "folding stability dG unfold (kcal/mol)": 0.892
  }
]
